In what follows, each item is paired with its pKi for 5-hydroxytryptamine receptor 1D (Homo sapiens, UniProt P28221).
Scale for pKi: -log10 of concentration given in mol/L; no unit attached.

[Q] Form field: reported pKi of CCCN(CC(C)C)[C@@H]1CCc2ccc3[nH]ccc3c2C1
[A] 7.46

[Q] Same for CCCN(CC1CC1)C1CCc2ccc3[nH]ccc3c2C1 (stereo unspecified)
[A] 7.12

[Q] Same for CCCN(CCCc1ccccc1OC)C1CCc2ccc3[nH]ccc3c2C1 (stereo unspecified)
[A] 8.60

[Q] Same for CCCN(CCCCN1C(=O)CC(C)(C)CC1=O)C1CCc2ccc3[nH]ccc3c2C1 (stereo unspecified)
[A] 7.59

[Q] Same for CCCN(CC1CC1)C1CCc2ccc3[nH]cc(C=O)c3c2C1 (stereo unspecified)
[A] 7.62

[Q] Same for C=CCN(CCC)C1CCc2ccc3[nH]ccc3c2C1 (stereo unspecified)
[A] 7.46

[Q] Same for CCCN(Cc1ccccc1)C1CCc2ccc3[nH]ccc3c2C1 (stereo unspecified)
[A] 6.72

[Q] Same for CCCNC1CCc2ccc3[nH]cc(C=O)c3c2C1 (stereo unspecified)
[A] 7.57

[Q] Same for CCCN(CCCc1ccccc1)C1CCc2ccc3[nH]cc(C=O)c3c2C1 (stereo unspecified)
[A] 8.70

[Q] Same for CCCN(C)C1CCc2ccc3[nH]ccc3c2C1 (stereo unspecified)
[A] 6.77

[Q] Same for CCCNC1CCc2ccc3[nH]ccc3c2C1 (stereo unspecified)
[A] 7.16

====

Provide the recorded pKi for the entries that follow.
- tested.on: D(2) dopamine receptor (Rattus norvegicus, UniProt P61169)
- Sequence (P61169 whole entry): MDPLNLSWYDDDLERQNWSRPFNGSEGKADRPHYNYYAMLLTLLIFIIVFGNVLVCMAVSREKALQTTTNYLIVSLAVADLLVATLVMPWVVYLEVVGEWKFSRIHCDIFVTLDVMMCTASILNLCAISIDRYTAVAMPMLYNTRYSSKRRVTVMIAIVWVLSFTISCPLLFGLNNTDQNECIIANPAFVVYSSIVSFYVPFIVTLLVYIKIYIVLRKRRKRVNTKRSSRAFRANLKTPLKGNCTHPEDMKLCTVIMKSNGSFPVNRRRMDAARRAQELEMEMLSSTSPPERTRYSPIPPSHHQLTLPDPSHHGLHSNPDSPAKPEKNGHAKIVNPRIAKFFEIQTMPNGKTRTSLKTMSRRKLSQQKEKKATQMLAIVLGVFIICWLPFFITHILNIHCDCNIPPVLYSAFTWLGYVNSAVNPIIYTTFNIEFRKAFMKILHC
- assay.procedure: In vitro binding affinity against cloned mammalian Dopamine receptor D2 expressed in CHO cells using [3H]U-86170 as radioligand
- Format: cell-based
- condition.label: read-out: Ki
Scale for pKi: -log10 of concentration given in mol/L; no unit attached.

[Q] Lab request: please report pKi under test system D(2) dopamine receptor (Rattus norvegicus, UniProt P61169) for CCCN(CCCc1ccccc1)C1CCc2ccc3[nH]cc(C=O)c3c2C1 (stereo unspecified)
[A] 7.89

[Q] Same for CCCN(CC(C)C)[C@@H]1CCc2ccc3[nH]ccc3c2C1
[A] 8.24

[Q] Same for CCCN(C)C1CCc2ccc3[nH]cc(C=O)c3c2C1 (stereo unspecified)
[A] 6.82

[Q] Same for CN(C)[C@@H]1CCc2ccc3[nH]cc(C=O)c3c2C1
[A] 7.89

[Q] Same for CCCN(CCCc1ccccc1OC)C1CCc2ccc3[nH]cc(C=O)c3c2C1 (stereo unspecified)
[A] 7.85

[Q] Same for CCCN(CCCOc1cccc(Cl)c1)C1CCc2ccc3[nH]cc(C=O)c3c2C1 (stereo unspecified)
[A] 7.55

====

Provide the recorded pKi for the entries that follow.
- tested.on: 5-hydroxytryptamine receptor 1D (Homo sapiens, UniProt P28221)
- Sequence (P28221 whole entry): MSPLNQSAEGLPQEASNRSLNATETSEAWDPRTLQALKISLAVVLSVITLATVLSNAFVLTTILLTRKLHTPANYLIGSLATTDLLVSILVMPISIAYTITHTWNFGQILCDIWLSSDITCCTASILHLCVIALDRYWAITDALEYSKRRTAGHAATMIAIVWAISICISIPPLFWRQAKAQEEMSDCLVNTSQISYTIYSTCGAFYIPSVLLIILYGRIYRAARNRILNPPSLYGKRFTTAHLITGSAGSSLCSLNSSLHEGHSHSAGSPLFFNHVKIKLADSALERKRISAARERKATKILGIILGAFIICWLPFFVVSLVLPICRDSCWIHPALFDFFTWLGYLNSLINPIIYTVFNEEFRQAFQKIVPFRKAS
Scale for pKi: -log10 of concentration given in mol/L; no unit attached.

[Q] Form field: reported pKi of CCCN(CCc1ccccc1)C1CCc2ccc3[nH]cc(C=O)c3c2C1 (stereo not given)
[A] 8.55

[Q] Same for CCCN(CCc1ccccc1)C1CCc2ccc3[nH]ccc3c2C1 (stereo not given)
[A] 8.13

[Q] Same for CCCN(CCc1cccs1)C1CCc2ccc3[nH]ccc3c2C1 (stereo not given)
[A] 7.89

[Q] Same for CCCN(CCC)C1CCc2ccc3[nH]ccc3c2C1 (stereo not given)
[A] 7.41

[Q] Same for CCCN(CCCCN1C(=O)CC(C)(C)CC1=O)C1CCc2ccc3[nH]cc(C=O)c3c2C1 (stereo not given)
[A] 8.01

[Q] Same for CCCN(CC(C)C)[C@@H]1CCc2ccc3[nH]cc(C=O)c3c2C1
[A] 8.19

[Q] Same for CCCN(CCCCN1C(=O)CC(C)(C)CC1=O)[C@H]1CCc2ccc3[nH]cc(C=O)c3c2C1
[A] 6.60

[Q] Same for CCCN(CCCc1ccccc1)[C@@H]1CCc2ccc3[nH]cc(C=O)c3c2C1
[A] 9.05

[Q] Same for CCCN(CCCCN1C(=O)CC(C)(C)CC1=O)[C@@H]1CCc2ccc3[nH]cc(C=O)c3c2C1
[A] 8.30

[Q] Same for CCCN(C)C1CCc2ccc3[nH]cc(C=O)c3c2C1 (stereo not given)
[A] 7.80
